# Test system: BR95 (epithelioid) malignant pleural mesothelioma cells
# measurement.protocol: Cell viability assay (Trypan blue dye exclusion), BR95
# Assay type: cell-based, human
# test.conditions: 72 h treatment; mean ± sd
# Protocol: Complexes 6–9 were tested on a panel of human MPM cell lines together with CDDP and SAA1, added for comparison (Table 1). The half-maximal inhibitory concentration, IC50, was determined on MSTO-211H (biphasic phenotype), REN (epithelioid), BR95 (epithelioid), and MM98 (sarcomatoid) cancer cell lines to identify the most promising Pt(IV) conjugate to be further investigated. […]
pIC50: −log10 of the molar value.

| molecule | pIC50 |
| --- | --- |
| CC(=O)[O][Pt]([NH2])([NH2])([Cl])([Cl])[O]C(=O)CCNC(=O)c1cccc(NC(=O)OCC2c3ccccc3-c3ccccc32)c1 | 6.08 |
| CC(=O)[O][Pt]([NH2])([NH2])([Cl])([Cl])[O]C(=O)CCCCCCNC(=O)c1cccc(NC(=O)OCC2c3ccccc3-c3ccccc32)c1 | 5.66 |
| CC(=O)[O][Pt]([NH2])([NH2])([Cl])([Cl])[O]C(=O)CCNC(=O)c1cccc(N)c1 | 4.25 |
| N.N.[Cl][Pt][Cl] [Cisplatin, CDDP, (SP-4-2)-diamminedichloridoplatinum(II), reference compound] | 5.67 |
| CC(=O)[O][Pt]([NH2])([NH2])([Cl])([Cl])[O]C(=O)CCCCCCNC(=O)c1cccc(N)c1 | 4.40 |

---

Catalogue of molecules with associated Pt Uptake
# Test system: MSTO-211H cells
# measurement.protocol: Cell uptake (intracellular Pt by ICP-MS)
# Type: cell-based, human
# test.conditions: 10 μM, 4 h treatment, mean ± sd

| molecule | display.unit | Pt Uptake |
| --- | --- | --- |
| CC(=O)[O][Pt]([NH2])([NH2])([Cl])([Cl])[O]C(=O)CCCCCCNC(=O)c1cccc(N)c1 | ng Pt per 10^6 Cells | 3.12 |
| CC(=O)[O][Pt]([NH2])([NH2])([Cl])([Cl])[O]C(=O)CCCCCCNC(=O)c1cccc(NC(=O)OCC2c3ccccc3-c3ccccc32)c1 | ng Pt per 10^6 Cells | 10.86 |
| N.N.[Cl][Pt][Cl] [Cisplatin, CDDP, (SP-4-2)-diamminedichloridoplatinum(II), reference compound] | ng Pt per 10^6 Cells | 9.23 |
| CC(=O)[O][Pt]([NH2])([NH2])([Cl])([Cl])[O]C(=O)CCNC(=O)c1cccc(N)c1 | ng Pt per 10^6 Cells | 2.50 |
| CC(=O)[O][Pt]([NH2])([NH2])([Cl])([Cl])[O]C(=O)CCNC(=O)c1cccc(NC(=O)OCC2c3ccccc3-c3ccccc32)c1 | ng Pt per 10^6 Cells | 10.64 |

---

# measurement.protocol: Lipophilicity by RP-HPLC (log k′)
# Assay type: physicochemical
# test.conditions: RP-HPLC C18, 15 mM formic acid/CH3OH 30/70

| smiles.str | Log k′ |
| --- | --- |
| CC(=O)[O][Pt]([NH2])([NH2])([Cl])([Cl])[O]C(=O)CCCCCCNC(=O)c1cccc(NC(=O)OCC2c3ccccc3-c3ccccc32)c1 | 5.84 |
| CC(=O)[O][Pt]([NH2])([NH2])([Cl])([Cl])[O]C(=O)CCNC(=O)c1cccc(N)c1 | 0.25 |
| CC(=O)[O][Pt]([NH2])([NH2])([Cl])([Cl])[O]C(=O)CCCCCCNC(=O)c1cccc(N)c1 | 0.34 |
| CC(=O)[O][Pt]([NH2])([NH2])([Cl])([Cl])[O]C(=O)CCNC(=O)c1cccc(NC(=O)OCC2c3ccccc3-c3ccccc32)c1 | 4.22 |

The reported numbers originate from paper PMC8402032.
